- target.under.test: SARS-Cov-2 3CLpro (Severe acute respiratory syndrome coronavirus 2, UniProt P0DTD1)
- test: biochemical
- condition.notes: Table A, class symbols, read-out: SARS-Cov-2 (IC50)
pIC50: −log10 of the molar value.
Provide the recorded pIC50 for the entries that follow.

Lookup: What measured pIC50 goes with CN(C(=O)[C@H](CC1CC1)NC(=O)C(F)(F)F)[C@@H](CC1CC1)C(=O)N1C[C@@]2(C[C@H]1C#N)Oc1c(F)cc(F)cc1CNC2=O ?
Found: > 7.70

Lookup: # get_value(readout='pIC50', item= COC(=O)N[C@@H](C)C(=O)N(C)[C@@H](CC1CC1)C(=O)N1C[C@@]2(C[C@H]1C#N)Oc1cccnc1NC2=O )
Found: > 7.70

Lookup: GET /values?readout=pIC50&item= CN(C(=O)[C@@H](Cc1ccncc1)NC(=O)C(F)(F)F)[C@@H](CC1CC1)C(=O)N1C[C@@]2(C[C@H]1C#N)Oc1cccnc1NC2=O
Found: > 7.70

Lookup: Fill in the blank: the reported pIC50 of CN(C(=O)[C@H](CC1CC1)n1cc(C(F)(F)F)nn1)[C@@H](CC1CC1)C(=O)N1C[C@@]2(C[C@H]1C#N)Oc1cc(F)cc(F)c1NC2=O is ____.
Found: > 7.70

Lookup: Any idea what its pIC50 is? The molecule is CN(C(=O)[C@@H](NC(=O)C(F)(F)F)C12CC(C1)C2)[C@@H](CC1CC1)C(=O)N1C[C@@]2(C[C@H]1C#N)Oc1cccnc1NC2=O
Found: > 7.70

Lookup: # lookup: pIC50 of CC(C)C[C@@H](C(=O)N1C[C@@]2(C[C@H]1C#N)N=C(C(C)(C)C)NC2=O)N(C)C(=O)[C@H](C)NC(=O)C(F)(F)F
Found: 6.70 to 7.70

====

- target.under.test: SARS-Cov-2 3CLpro (Severe acute respiratory syndrome coronavirus 2)
- test: biochemical
- condition.notes: Table A, class symbols, read-out: SARS-Cov-2 (IC50)
Assignment: determine reported IC50 for the given molecules.

Lookup: Item CN(C(=O)[C@H](COC(C)(C)C)NC(=O)C(F)(F)F)[C@@H](CC1CC1)C(=O)N1C[C@@]2(C[C@H]1C#N)Oc1cc(F)cc(F)c1NC2=O has what recorded IC50?
Found: < 20 nM

Lookup: Given the molecule CN(C(=O)[C@@H](NC(=O)C(F)(F)F)C1CC(F)(F)C1)[C@@H](CC1CC1)C(=O)N1C[C@@]2(C[C@H]1C#N)Oc1cccnc1NC2=O , what is its reported IC50?
Found: 20 to 200 nM

Lookup: Quick one: IC50 of CN(C(=O)[C@@H](Cc1ccc(F)cc1)NC(=O)C(F)(F)F)[C@@H](CC1CC1)C(=O)N1C[C@@]2(C[C@H]1C#N)Oc1cc(F)cc(F)c1NC2=O ?
Found: < 20 nM

====

- target.under.test: SARS-Cov-2 3CLpro (Severe acute respiratory syndrome coronavirus 2, UniProt P0DTD1)
- test: biochemical
- condition.notes: Table A, cells given as a bound, read-out: SARS-Cov-2 (IC50)
pIC50: −log10 of the molar value.
endpoint.name: pIC50

Lookup: Look at this compound and give its reported pIC50. CN(C(=O)c1ccc(=O)[nH]n1)[C@@H](CC1CC1)C(=O)N1C[C@@]2(C[C@H]1C#N)Oc1cccnc1NC2=O [Compound 231]
Found: < 5.70

Lookup: Tell me the measured pIC50 of CN(C(=O)[C@H](CC1CC1)NC(=O)C(F)(F)F)[C@@H](CC1CC1)C(=O)N1C[C@@]2(C[C@@H]1C#N)C(=O)NCc1ccccc12 (single isomer, unassigned) [Compound 123] , please.
Found: < 5.70

====

- test: Cytotoxicity in HeLa cells without addition of OC43 virus (in parallel)
- condition.notes: human, HeLa cells, without OC43 virus
endpoint.name: CC50 at 6 days

Lookup: Value lookup for CC50 at 6 days; key = C[C@H](NC(=O)C(F)(F)C(F)(F)F)C(=O)N(C)[C@@H](CC1CC1)C(=O)N1C[C@@]2(C[C@H]1C#N)Oc1cccnc1NC2=O
Found: > 10 µM

Lookup: Given the compound CC(C)C[C@@H](C(=O)N1C[C@]2(C[C@H]1C#N)C(=O)Nc1ccccc1N2C)N(C)C(=O)[C@H](C)NC(=O)C(F)(F)F , what is its reported CC50 at 6 days?
Found: > 10 µM

Lookup: # input compound: CC(C)C[C@@H](C(=O)N1C[C@@]2(C[C@H]1C#N)CC(C)(C)NC2=O)N(C)C(=O)[C@H](C)NC(=O)C(F)(F)F ; wanted: its CC50 at 6 days
Found: > 10 µM

====

Task for the reader: assign each of the following molecules its reported pIC50.
- target.under.test: SARS-Cov-2 3CLpro (Severe acute respiratory syndrome coronavirus 2)
- test: biochemical
- condition.notes: Table A, class symbols, read-out: SARS-Cov-2 (IC50)
pIC50: −log10 of the molar value.

Lookup: // pIC50 lookup, key: C[C@H](NC(=O)C(F)(F)F)C(=O)N(C)[C@@H](CC(C)(C)C)C(=O)N1C[C@@]2(C[C@H]1C#N)Oc1cccnc1NC2=O
Found: > 7.70

Lookup: For CN(C(=O)[C@H](CC1CC1)NC(=O)C(F)(F)F)[C@@H](CC1CC1)C(=O)N1C[C@@]2(C[C@H]1C#N)Oc1ccccc1C(C)(C)NC2=O , what is its reported pIC50?
Found: 6.70 to 7.70

Lookup: Data request, read-out pIC50, for CN(C(=O)[C@H](CC1CC(F)(F)C1)NC(=O)C(F)(F)F)[C@@H](CC1CC1)C(=O)N1C[C@@]2(C[C@H]1C#N)Oc1cccnc1NC2=O
Found: > 7.70

====

- System: SARS-CoV-2 B.1.1.7 lineage
- test: microbe, parasite or virus in culture
- Assay type: cell-based
- condition.notes: Severe acute respiratory syndrome coronavirus 2; Table C; SARS-CoV-2 B.1.1.7 in A549-dual_ACE2_TMPRSS2 cells, class symbols; read-out: A549-dual_ACE2_TMPRSS2 (EC50)
pEC50: −log10 of the molar value.
endpoint.name: pEC50

Lookup: For the compound CN(C(=O)c1ncc(-c2ccccc2)[nH]1)[C@@H](CC1CC1)C(=O)N1C[C@@]2(C[C@H]1C#N)Oc1cccnc1NC2=O , what pEC50 is on record?
Found: 6.00 to 7.00

Lookup: What pEC50 value was documented for this compound, CC(C)C[C@@H](C(=O)N1C[C@]2(C[C@H]1C#N)C(=O)Nc1ccccc1C2(F)F)N(C)C(=O)[C@H](C)NC(=O)C(F)(F)F ?
Found: 6.00 to 7.00

Lookup: Tell me the measured pEC50 of CN(C(=O)[C@H](CC1CCC1)NC(=O)C(F)(F)F)[C@@H](CC1CC1)C(=O)N1C[C@@]2(C[C@H]1C#N)Oc1cc(F)cc(F)c1NC2=O , please.
Found: > 7.00

Lookup: Quick one: pEC50 for CN(C(=O)[C@H](CC1CC1)NC(=O)C(F)(F)F)[C@@H](CC1CC1)C(=O)N1C[C@@]2(C[C@H]1C#N)Oc1ccccc1NC2=O ?
Found: > 7.00

Lookup: Data request, read-out pEC50, for CC(C)C[C@@H](C(=O)N1C[C@]2(CCNC2=O)C[C@H]1C#N)N(C)C(=O)[C@H](C)NC(=O)C(F)(F)F
Found: 5.00 to 6.00

Lookup: Reported pEC50, compound CN(C(=O)[C@H](CC1CC1)NC(=O)C(F)(F)F)[C@@H](CC1CC1)C(=O)N1C[C@@]2(C[C@H]1C#N)Oc1cc(F)ccc1CNC2=O : ____
Found: > 7.00

====

- System: SARS-CoV-2 B.1.1.7 lineage
- test: microbe, parasite or virus in culture
- Type: cell-based
- condition.notes: Severe acute respiratory syndrome coronavirus 2; Table C; SARS-CoV-2 B.1.1.7 in A549-dual_ACE2_TMPRSS2 cells, class symbols; read-out: A549-dual_ACE2_TMPRSS2 (EC50)
endpoint.name: EC50

Lookup: Any idea what EC50 was measured for C[C@H](NC(=O)C(F)(F)F)C(=O)N(C)[C@@H](CC(C)(C)C)C(=O)N1C[C@@]2(C[C@H]1C#N)Oc1cccnc1NC2=O [Compound 166] ?
Found: 100 to 1000 nM

Lookup: // lookup EC50 for CN(C(=O)[C@@H](NC(=O)C(F)(F)F)C1CCCC1)[C@@H](CC1CC1)C(=O)N1C[C@@]2(C[C@H]1C#N)Oc1cccnc1NC2=O [Compound 218]
Found: < 100 nM

Lookup: Can you share its EC50? I mean this compound: CN(C(=O)[C@H](CC(F)(F)F)NC(=O)C(F)(F)F)[C@@H](CC1CC1)C(=O)N1C[C@@]2(C[C@H]1C#N)Oc1cc(F)cc(F)c1NC2=O [Compound 85]
Found: < 100 nM

Lookup: What EC50 value was documented for this compound, CN(C(=O)c1cc2cccnc2[nH]1)[C@@H](CC1CC1)C(=O)N1C[C@@]2(C[C@H]1C#N)Oc1cc(F)cc(F)c1NC2=O [Compound 137] ?
Found: 100 to 1000 nM

Lookup: Please look up its EC50: C[C@H](NC(=O)C(F)(F)F)C(=O)N(C)[C@@H](Cc1ccc(F)cc1)C(=O)N1C[C@@]2(C[C@H]1C#N)Oc1cccnc1NC2=O [Compound 181]
Found: 100 to 1000 nM

Lookup: I'd like to know its EC50. The compound in question is Cc1ccc2c(n1)O[C@@]1(C[C@@H](C#N)N(C(=O)[C@H](CC3CC3)N(C)C(=O)[C@H](CC3CC3)NC(=O)C(F)(F)F)C1)C(=O)N2 [Compound 227]
Found: 100 to 1000 nM
